# protocolDescription: Partition coefficient, log D of the compound at pH 7.4
# Type: physicochemical
# conditionSummary: octanol/water
In this scheme, each record receives a class according to its logD; the ranges are bin 0: < 3; bin 1: ≥ 3 and < 4; bin 2: ≥ 4

structureNotation	cat
CC(C)=CCc1c(O)cc(O)c2c1O[C@@]13C(=C[C@H]4C(=O)C1(CC=C(C)C)OC[C@@H]3[C@H]4CN1CCCCC1)C2=O	bin 1
CC(C)=CCc1c(O)cc(O)c2c1O[C@@]13C(=C[C@H]4C(=O)C1(CC=C(C)C)OC[C@@H]3[C@H]4CN1CCN(c3ccccc3)CC1)C2=O	bin 2
CC(C)=CCC12OC[C@@H]3[C@@H](CN4CCOCC4)[C@@H](C=C4C(=O)c5c(O)cccc5O[C@]431)C2=O	bin 0
CC(C)=CCc1c(O)cc2c(c1O)C(=O)C1=C[C@H]3C(=O)C4(CC=C(C)C)OC[C@H]([C@H]3CN3CCN(c5ccccc5)CC3)[C@]14O2	bin 2
CC(C)=CCC12OC[C@@H]3[C@@H](CN4CCN(c5ccccc5)CC4)[C@@H](C=C4C(=O)c5c(O)cccc5O[C@]431)C2=O	bin 1
CC(C)=CCc1c(O)cc2c(c1O)C(=O)C1=C[C@@H]3C[C@H]4COC(CC=C(C)C)(C3=O)[C@@]14O2	bin 1
CC(C)=CCC12OC[C@@H]3[C@@H](CN4CCOCC4)[C@@H](C=C4C(=O)c5c(cc6c(c5O)C=CC(C)(C)O6)O[C@]431)C2=O	bin 1
CC(C)=CCc1c(O)cc(O)c2c1O[C@@]13C(=C[C@H]4C(=O)C1(CC=C(C)C)OC[C@@H]3[C@H]4COCc1ccccc1)C2=O	bin 2
CC(C)=CCC12OC(C)(C)[C@@H]3C[C@@H](C=C4C(=O)c5c(O)cccc5O[C@]431)C2=O	bin 0
CC(C)=CCC12OC[C@@H]3[C@@H](COC(C)C)[C@@H](C=C4C(=O)c5c(O)cccc5O[C@]431)C2=O	bin 0
CCCCN(CCCC)C[C@@H]1[C@H]2COC3(CC=C(C)C)C(=O)[C@@H]1C=C1C(=O)c4c(cc5c(c4O)C=CC(C)(C)O5)O[C@]123	bin 2
CCCCN(CCCC)C[C@@H]1[C@H]2COC3(CC=C(C)C)C(=O)[C@@H]1C=C1C(=O)c4c(O)cccc4O[C@]123	bin 2
CC(C)=CCC12OC[C@@H]3[C@@H](COC(=O)Cc4ccccc4)[C@@H](C=C4C(=O)c5c(O)cccc5O[C@]431)C2=O	bin 1
CC(C)=CCc1c(O)cc(O)c2c1O[C@@]13C(=C[C@H]4C(=O)C1(CC=C(C)C)OC[C@@H]3[C@H]4CN(C)C)C2=O	bin 0
CC(C)=CCC12OC(C)(C)[C@@H]3C[C@@H](C=C4C(=O)c5c(O)cc(O)cc5O[C@]431)C2=O	bin 0
CC(C)=CCC12OC[C@@H]3[C@@H](COCc4ccccc4)[C@@H](C=C4C(=O)c5c(O)cccc5O[C@]431)C2=O	bin 1
CC(C)=CCc1c(O)cc2c(c1O)C(=O)C1=C[C@H]3C(=O)C4(CC=C(C)C)OC[C@H]([C@H]3CN(CCO)CCO)[C@]14O2	bin 0
CC(C)=CCC12OC[C@@H]3[C@@H](CN4CCNCC4)[C@@H](C=C4C(=O)c5c(O)cccc5O[C@]431)C2=O	bin 0
CC(=O)OC[C@@H]1[C@H]2COC3(CC=C(C)C)C(=O)[C@@H]1C=C1C(=O)c4c(O)cc(O)c(CC=C(C)C)c4O[C@]123	bin 0
CC(C)=CCc1c(O)cc(O)c2c1O[C@@]13C(=C[C@H]4C(=O)C1(CC=C(C)C)OC[C@@H]3[C@H]4COC(=O)Cc1ccccc1)C2=O	bin 2
CC(C)=CCc1c(O)cc(O)c2c1O[C@@]13C(=C[C@H]4C(=O)C1(CC=C(C)C)OC[C@@H]3[C@H]4CN1CCCC1)C2=O	bin 1
CC(C)=CCc1c(O)cc2c(c1O)C(=O)C1=C[C@H]3C(=O)C4(CC=C(C)C)OC[C@H]([C@H]3CN3CCOCC3)[C@]14O2	bin 1
CC(=O)OC[C@@H]1[C@H]2COC3(CC=C(C)C)C(=O)[C@@H]1C=C1C(=O)c4c(O)cccc4O[C@]123	bin 0
CCCCN(CCCC)C[C@@H]1[C@H]2COC3(CC=C(C)C)C(=O)[C@@H]1C=C1C(=O)c4c(cc(O)c(CC=C(C)C)c4O)O[C@]123	bin 2
CCCCN(CCCC)C[C@@H]1[C@H]2COC3(CC=C(C)C)C(=O)[C@@H]1C=C1C(=O)c4c(O)cc(O)c(CC=C(C)C)c4O[C@]123	bin 2
